assay: Stability in simulated intestinal fluid; format: in vitro ADME; details: 2 μM, 37° C., pH 7.5
MEASURED_PROPERTY: half-life (t1/2) in simulated intestinal fluid

CCc1cc(OC)ccc1-c1ccc(CC(NC(=O)[C@H](CC(=O)O)NC(=O)[C@H](CO)NC(=O)[C@@H](NC(=O)C(C)(Cc2ccccc2F)NC(=O)[C@@H](NC(=O)CNC(=O)[C@H](CCC(N)=O)NC(=O)[C@H](CO)NC(=O)[C@@H](N)Cc2c[nH]cn2)[C@@H](C)O)[C@@H](C)O)C(=O)NC(Cc2ccc(-c3ccccc3F)cc2)C(N)=O)cc1 (single isomer, unassigned) | (6) h
CCc1cc(OC)ccc1-c1ccc(CC(NC(=O)[C@H](CC(=O)O)NC(=O)[C@H](CO)NC(=O)[C@@H](NC(=O)C(C)(Cc2ccccc2F)NC(=O)[C@@H](NC(=O)CNC(=O)[C@H](CCC(N)=O)NC(=O)[C@H](CO)NC(=O)[C@@H](N)Cc2c[nH]cn2)[C@@H](C)O)[C@@H](C)O)C(=O)NC(Cc2ccc(-c3ccccc3C)nc2)C(N)=O)cc1 (single isomer, unassigned) | (6) h

---

# reported % degradation in 24 h when incubated with human plasma; entries follow
assay: Stability in human plasma; type: in vitro ADME; conditions: 2 μM, 37° C., 24 h
Give the value in % but do not write % after it.

CCc1cc(OC)ccc1-c1ccc(CC(NC(=O)[C@H](CC(=O)O)NC(=O)[C@H](CO)NC(=O)[C@@H](NC(=O)C(C)(Cc2ccccc2F)NC(=O)[C@@H](NC(=O)CNC(=O)[C@H](CCC(N)=O)NC(=O)C2(NC(=O)[C@@H](N)Cc3c[nH]cn3)CC2)[C@@H](C)O)[C@@H](C)O)C(=O)NC(Cc2ccc(-c3ccccc3F)cc2)C(N)=O)cc1 (single isomer, unassigned) [compound 35] | 00

Please examine the following record next.
Request the reported % degradation in 24 h when incubated with human plasma associated with CCc1cc(OC)ccc1-c1ccc(CC(NC(=O)[C@H](CC(=O)O)NC(=O)[C@H](CO)NC(=O)[C@@H](NC(=O)C(C)(Cc2ccccc2F)NC(=O)[C@@H](NC(=O)CNC(=O)[C@H](CCC(N)=O)NC(=O)C(C)(C)NC(=O)[C@@H](N)Cc2c[nH]cn2)[C@@H](C)O)[C@@H](C)O)C(=O)NC(Cc2ccc(-c3ccccc3C)cc2)C(N)=O)cc1 (single isomer, unassigned) [compound 29]
00

---

experiment: Stability in simulated gastric fluid; assay type: in vitro ADME; settings: 2 μM, 37° C., pH 1.5, pepsin
MEASURED_PROPERTY: half-life (t1/2) in simulated gastric fluid

CCc1cc(OC)ccc1-c1ccc(CC(NC(=O)[C@H](CC(=O)O)NC(=O)[C@H](CO)NC(=O)[C@@H](NC(=O)C(C)(Cc2ccccc2F)NC(=O)[C@@H](NC(=O)CNC(=O)[C@H](CCC(N)=O)NC(=O)[C@H](CO)NC(=O)[C@@H](N)Cc2c[nH]cn2)[C@@H](C)O)[C@@H](C)O)C(=O)NC(Cc2ccc(-c3ccccc3C)cc2)C(N)=O)cc1 (single isomer, unassigned) | (8) h

---

Catalogue of compounds with associated % degradation in 24 h when incubated with simulated gastric fluid
assay: Stability in simulated gastric fluid; type: in vitro ADME; conditions: 2 μM, 37° C., 24 h, pH 1.5, pepsin
Return type: number; implicit unit %.

CCc1cc(OC)ccc1-c1ccc(CC(NC(=O)[C@H](CC(=O)O)NC(=O)[C@H](CO)NC(=O)[C@@H](NC(=O)[C@H](Cc2ccccc2)NC(=O)[C@@H](NC(=O)CNC(=O)[C@H](CCC(N)=O)NC(=O)[C@H](CO)NC(=O)[C@@H](N)Cc2c[nH]cn2)[C@@H](C)O)[C@@H](C)O)C(=O)NC(Cc2ccc(-c3ccccc3C(F)(F)F)cc2)C(N)=O)cc1 (single isomer, unassigned) | 100

Could you tell me which % degradation in 24 h when incubated with simulated gastric fluid is on file for CCc1cc(OC)ccc1-c1ccc(CC(NC(=O)[C@H](CC(=O)O)NC(=O)[C@H](CO)NC(=O)[C@@H](NC(=O)C(C)(Cc2ccccc2F)NC(=O)[C@@H](NC(=O)CNC(=O)[C@H](CCC(N)=O)NC(=O)[C@H](CO)NC(=O)[C@@H](N)Cc2c[nH]cn2)[C@@H](C)O)[C@@H](C)O)C(=O)NC(Cc2ccc(-c3ccccc3C(F)(F)F)cc2)C(N)=O)cc1 (single isomer, unassigned) ?
14

Ok, now CCc1cc(OC)ccc1-c1ccc(CC(NC(=O)[C@H](CC(=O)O)NC(=O)[C@H](CO)NC(=O)[C@@H](NC(=O)[C@H](Cc2ccccc2)NC(=O)[C@@H](NC(=O)CNC(=O)[C@H](CCC(N)=O)NC(=O)C(C)(C)NC(=O)[C@@H](N)Cc2c[nH]cn2)[C@@H](C)O)[C@@H](C)O)C(=O)NC(Cc2ccc(-c3ccccc3C)cc2)C(N)=O)cc1 (single isomer, unassigned)
50

Further, for CCc1cc(OC)ccc1-c1ccc(CC(NC(=O)[C@H](CC(=O)O)NC(=O)[C@H](CO)NC(=O)[C@@H](NC(=O)C(C)(Cc2ccccc2F)NC(=O)[C@@H](NC(=O)CNC(=O)[C@H](CCC(N)=O)NC(=O)[C@H](CO)NC(=O)[C@@H](N)Cc2c[nH]cn2)[C@@H](C)O)[C@@H](C)O)C(=O)NC(Cc2ccc(-c3ccccc3F)cc2)C(N)=O)cc1 (single isomer, unassigned) ?
13

---

molecular target: Human GLP-1 receptor (Homo sapiens, UniProt P43220); construct: The full-length cDNA was cloned in pcDNA3.1(+); expressed in transfected cells; assay type: cell-based; conditions: 10 nM test compound
Sequence (P43220 24-463): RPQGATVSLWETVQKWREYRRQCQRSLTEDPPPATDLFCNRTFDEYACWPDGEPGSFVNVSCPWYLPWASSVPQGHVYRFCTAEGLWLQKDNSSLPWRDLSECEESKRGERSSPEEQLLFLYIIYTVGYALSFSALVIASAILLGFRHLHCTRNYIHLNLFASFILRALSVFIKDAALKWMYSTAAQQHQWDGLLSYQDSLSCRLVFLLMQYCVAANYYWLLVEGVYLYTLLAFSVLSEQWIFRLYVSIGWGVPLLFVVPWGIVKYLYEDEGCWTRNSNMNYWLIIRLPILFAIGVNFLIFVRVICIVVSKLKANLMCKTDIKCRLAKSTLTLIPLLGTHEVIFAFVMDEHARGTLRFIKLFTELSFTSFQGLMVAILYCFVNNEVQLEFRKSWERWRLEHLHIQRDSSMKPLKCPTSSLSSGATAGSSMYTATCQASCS
MEASURED_PROPERTY: Human GLP-1 R activity (cAMP release), % activity with respect to control (%)
I only need the number, in %, no unit after it.

Fill in the blank: the reported Human GLP-1 R activity (cAMP release), % activity with respect to control of CCc1cc(OC)ccc1-c1ccc(CC(NC(=O)[C@H](CC(=O)O)NC(=O)[C@H](CO)NC(=O)[C@@H](NC(=O)[C@H](Cc2ccccc2)NC(=O)[C@@H](NC(=O)CNC(=O)[C@H](CCC(N)=O)NC(=O)C2(NC(=O)[C@@H](N)Cc3c[nH]cn3)CC2)[C@@H](C)O)[C@@H](C)O)C(=O)NC(Cc2ccc(-c3ccccc3C(F)(F)F)cc2)C(N)=O)cc1 (single isomer, unassigned) is ____.
99

---

Overview of recorded half-life at 2 μM for various compounds
Assay: Stability in simulated intestinal fluid
Format: in vitro ADME
Conditions: simulated intestinal fluid, 37° C., pH 7.5, read-out: half-life (t1/2) in simulated intestinal fluid
Experimental: Reactions were terminated by the addition of TFA/H2O (15 mL, 10% (v/v)). […] The column was equilibrated with TFA/H2O, at a flow rate of 1 mL/min. […] The absorbance was monitored at 206 nm using UV detector and peaks were collected manually prior to ESI-MS analysis.
Answer format: numeric, min implied, no suffix.

Here are 2 compounds together with their reported answers.
CCc1cc(OC)ccc1-c1ccc(CC(NC(=O)[C@H](CC(=O)O)NC(=O)[C@H](CO)NC(=O)[C@@H](NC(=O)[C@H](Cc2ccccc2)NC(=O)[C@@H](NC(=O)CNC(=O)[C@H](CCC(N)=O)NC(=O)[C@H](C)NC(=O)[C@@H](N)Cc2c[nH]cn2)[C@@H](C)O)[C@@H](C)O)C(=O)NC(Cc2ccc(-c3ccccc3C)cc2)C(N)=O)cc1 (single isomer, unassigned) [compound 9] | 30
CCc1cc(OC)ccc1-c1ccc(CC(NC(=O)[C@H](CC(=O)O)NC(=O)[C@H](CO)NC(=O)[C@@H](NC(=O)[C@H](Cc2ccccc2)NC(=O)[C@@H](NC(=O)CNC(=O)[C@H](CCC(N)=O)NC(=O)[C@H](C)NC(=O)[C@@H](N)Cc2c[nH]cn2)[C@@H](C)O)[C@@H](C)O)C(=O)NC(Cc2ccc(-c3ccccc3C)nc2)C(N)=O)cc1 (single isomer, unassigned) [compound 10] | 30

Would you kindly look at the next entry?
Given the entry CCc1cc(OC)ccc1-c1ccc(CC(NC(=O)[C@H](CC(=O)O)NC(=O)[C@H](CO)NC(=O)[C@@H](NC(=O)[C@H](Cc2ccccc2)NC(=O)[C@@H](NC(=O)CNC(=O)[C@H](CCC(N)=O)NC(=O)[C@H](CO)NC(=O)[C@@H](N)Cc2c[nH]cn2)[C@@H](C)O)[C@@H](C)O)C(=O)NC(Cc2ccc(-c3ccccc3C)nc2)C(N)=O)cc1 (single isomer, unassigned) [compound 6] , report its measured half-life at 2 μM.
30

---

Here the recorded Human GLP-1 R activity (cAMP release), % activity with respect to control is given for each entry.
target: Human GLP-1 receptor (Homo sapiens); construct: The full-length cDNA was cloned in pcDNA3.1(+); expressed in transfected cells; type: cell-based; conditions: 100 nM test compound

Answered examples (4):
CCc1cc(OC)ccc1-c1ccc(CC(NC(=O)[C@H](CC(=O)O)NC(=O)[C@H](CO)NC(=O)[C@@H](NC(=O)[C@H](Cc2ccccc2)NC(=O)[C@@H](NC(=O)CNC(=O)[C@H](CCC(N)=O)NC(=O)C(C)(C)NC(=O)[C@@H](N)Cc2c[nH]cn2)[C@@H](C)O)[C@@H](C)O)C(=O)NC(Cc2ccc(-c3ccccc3C)nc2)C(N)=O)cc1 (single isomer, unassigned) | 99 ± 0.06%
CCc1cc(OC)ccc1-c1ccc(CC(NC(=O)[C@H](CC(=O)O)NC(=O)[C@H](CO)NC(=O)[C@@H](NC(=O)C(C)(Cc2ccccc2F)NC(=O)[C@@H](NC(=O)CNC(=O)[C@H](CCC(N)=O)NC(=O)C(C)(C)NC(=O)[C@@H](N)Cc2c[nH]cn2)[C@@H](C)O)[C@@H](C)O)C(=O)NC(Cc2ccc(-c3ccccc3C(F)(F)F)cc2)C(N)=O)cc1 (single isomer, unassigned) | 99 ± 0.08%
CCc1cc(OC)ccc1-c1ccc(CC(NC(=O)[C@H](CC(=O)O)NC(=O)[C@H](CO)NC(=O)[C@@H](NC(=O)[C@H](Cc2ccccc2)NC(=O)[C@@H](NC(=O)CNC(=O)[C@H](CCC(N)=O)NC(=O)C2(NC(=O)[C@@H](N)Cc3c[nH]cn3)CC2)[C@@H](C)O)[C@@H](C)O)C(=O)NC(Cc2ccc(-c3ccccc3F)cc2)C(N)=O)cc1 (single isomer, unassigned) | 99 ± 0.41%
CCc1cc(OC)ccc1-c1ccc(CC(NC(=O)[C@H](CC(=O)O)NC(=O)[C@H](CO)NC(=O)[C@@H](NC(=O)[C@H](Cc2ccccc2)NC(=O)[C@@H](NC(=O)CNC(=O)[C@H](CCC(N)=O)NC(=O)C(C)(C)NC(=O)[C@@H](N)Cc2c[nH]cn2)[C@@H](C)O)[C@@H](C)O)C(=O)NC(Cc2ccc(-c3ccccc3C(F)(F)F)cc2)C(N)=O)cc1 (single isomer, unassigned) | 99 ± 0.04%

Alright, here's another compound for you.
Give the measured Human GLP-1 R activity (cAMP release), % activity with respect to control of CCc1cc(OC)ccc1-c1ccc(CC(NC(=O)[C@H](CC(=O)O)NC(=O)[C@H](CO)NC(=O)[C@@H](NC(=O)[C@H](Cc2ccccc2)NC(=O)[C@@H](NC(=O)CNC(=O)[C@H](CCC(N)=O)NC(=O)C2(NC(=O)[C@@H](N)Cc3c[nH]cn3)CC2)[C@@H](C)O)[C@@H](C)O)C(=O)NC(Cc2ccc(-c3ccccc3C)cc2)C(N)=O)cc1 (single isomer, unassigned) .
99 ± 0.18%

Taken from patent US8841413B2.
